Test system: IA-LM
Assay: relative viability (nuclei count vs DMSO), 5 days (fraction); higher = more cells survive
Conditions: first compound 0.253 µM
Mark each entry Fulfilled if its relative viability sits below 0.9, and Not fulfilled for all others.

Input O=c1cc(-c2cccc3c2Sc2ccccc2S3)oc(N2CCOCC2)c1 + O=C(CCCCCCC(=O)Nc1ccccc1)NO [Vorinostat] (partner 1 µM) ; condition: relative viability strictly below 0.9. Does it hold?
Not fulfilled

Input COc1nc(C)cnc1NS(=O)(=O)c1cccnc1-c1ccc(-c2nnco2)cc1 [Zibotentan] + COc1cc2c(Oc3ccc(NC(=O)C4(C(=O)Nc5ccc(F)cc5)CC4)cc3F)ccnc2cc1OCCCN1CCOCC1 [Foretinib] (partner 0.25 µM) ; condition: relative viability strictly below 0.9. Does it hold?
Not fulfilled

Input O=c1cc(-c2cccc3c2Sc2ccccc2S3)oc(N2CCOCC2)c1 + CC(C)C[C@H](NC(=O)[C@H](Cc1ccccc1)NC(=O)c1cnccn1)B(O)O [Bortezomib] (partner 0.002 µM) ; condition: relative viability strictly below 0.9. Does it hold?
Not fulfilled

Input COc1nc(C)cnc1NS(=O)(=O)c1cccnc1-c1ccc(-c2nnco2)cc1 [Zibotentan] + CS(=O)(=O)CCNCc1ccc(-c2ccc3ncnc(Nc4ccc(OCc5cccc(F)c5)c(Cl)c4)c3c2)o1 [Lapatinib] (partner 2 µM) ; condition: relative viability strictly below 0.9. Does it hold?
Fulfilled

---

Test system: RERF-LC-KJ
Assay: relative viability (nuclei count vs DMSO), 5 days (fraction); higher = more cells survive
Settings: first compound 0.3162 µM
Give measured relative viability for each item. Keep answers brief.
When you answer, write just the number.

Record CCN(CC)CCCCNc1ncc2cc(-c3cc(OC)cc(OC)c3)c(NC(=O)NC(C)(C)C)nc2n1 + COc1cccc2cc(-c3nc([C@H]4CC[C@H](C(=O)O)CC4)n4ncnc(N)c34)[nH]c12 [OSI-027] (partner 0.5 µM) , field relative viability: 0.675

Record O=c1cc(N2CCOCC2)oc2c(-c3cccc4c3sc3ccccc34)cccc12 + CC(C)C[C@H](NC(=O)[C@H](Cc1ccccc1)NC(=O)c1cnccn1)B(O)O [Bortezomib] (partner 0.002 µM) , field relative viability: 1.22

Record O=c1cc(N2CCOCC2)oc2c(-c3cccc4c3sc3ccccc34)cccc12 + C[C@]1(O)C[C@@H](c2nc(-c3ccc4ccc(-c5ccccc5)nc4c3)c3c(N)nccn32)C1 [Linsitinib] (partner 1 µM) , field relative viability: 0.869

Record CCN(CC)CCCCNc1ncc2cc(-c3cc(OC)cc(OC)c3)c(NC(=O)NC(C)(C)C)nc2n1 + Cc1nc(Nc2ncc(C(=O)Nc3c(C)cccc3Cl)s2)cc(N2CCN(CCO)CC2)n1 [Dasatinib] (partner 0.075 µM) , field relative viability: 0.947

Record O=c1cc(N2CCOCC2)oc2c(-c3cccc4c3sc3ccccc34)cccc12 + CC(=O)c1c(C)c2cnc(Nc3ccc(N4CCNCC4)cn3)nc2n(C2CCCC2)c1=O [Palbociclib] (partner 0.5 µM) , field relative viability: 1.09

Record O=c1cc(N2CCOCC2)oc2c(-c3cccc4c3sc3ccccc34)cccc12 + N=C(N)NC(=N)NCCc1ccccc1 [Phenformin] (partner 250 µM) , field relative viability: 0.418

Record O=c1cc(N2CCOCC2)oc2c(-c3cccc4c3sc3ccccc34)cccc12 + NC(=O)Nc1cc(-c2cccc(F)c2)sc1C(=O)N[C@H]1CCCNC1 [AZD7762] (partner 0.2 µM) , field relative viability: 0.994

Record O=c1cc(N2CCOCC2)oc2c(-c3cccc4c3sc3ccccc34)cccc12 + Nc1ncn([C@H]2C[C@H](O)[C@@H](CO)O2)c(=O)n1 [Decitabine] (partner 2 µM) , field relative viability: 0.751

Record O=c1cc(N2CCOCC2)oc2c(-c3cccc4c3sc3ccccc34)cccc12 + CC(=O)Nc1cccc(-n2c(=O)n(C3CC3)c(=O)c3c(Nc4ccc(I)cc4F)n(C)c(=O)c(C)c32)c1 [Trametinib] (partner 0.02 µM) , field relative viability: 0.836
